# assayed-target: T1, human CDH6 on cells (human, UniProt P55285 54-790)
# T1 sequence: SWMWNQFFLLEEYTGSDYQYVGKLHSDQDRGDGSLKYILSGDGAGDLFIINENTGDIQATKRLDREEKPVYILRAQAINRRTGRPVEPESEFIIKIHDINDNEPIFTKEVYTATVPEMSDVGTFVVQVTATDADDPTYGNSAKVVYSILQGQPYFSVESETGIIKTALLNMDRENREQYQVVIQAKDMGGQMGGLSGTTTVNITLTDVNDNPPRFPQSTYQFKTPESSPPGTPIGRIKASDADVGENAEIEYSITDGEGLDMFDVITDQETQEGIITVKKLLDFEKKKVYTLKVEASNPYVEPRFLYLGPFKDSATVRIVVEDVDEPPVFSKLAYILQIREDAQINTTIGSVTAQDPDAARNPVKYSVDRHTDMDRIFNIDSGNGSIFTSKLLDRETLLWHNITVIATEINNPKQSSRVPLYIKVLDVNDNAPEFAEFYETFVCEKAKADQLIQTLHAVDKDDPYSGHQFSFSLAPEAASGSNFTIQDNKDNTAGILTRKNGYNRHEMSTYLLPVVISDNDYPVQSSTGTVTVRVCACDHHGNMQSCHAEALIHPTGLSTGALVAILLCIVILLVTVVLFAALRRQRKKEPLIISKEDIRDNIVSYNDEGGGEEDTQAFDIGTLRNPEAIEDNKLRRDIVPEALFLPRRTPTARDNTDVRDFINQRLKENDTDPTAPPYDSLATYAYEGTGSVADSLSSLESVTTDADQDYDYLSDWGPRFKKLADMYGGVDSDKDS
# assay-protocol: cell-based or functional assay
Measured percent inhibition at 1.22 nM ADC, NCIH661 cells of individual entries
measure: percent inhibition at 1.22 nM ADC, NCIH661 cells (%)

>>> numeric_readout("NOV0695-SMCC-DM1 (antibody, human IgG1, kappa, V domains shown, SMCC-DM1 on primary amines, sites not stated) VH: QVQLQQSGPGLVKPSQTLSLTCAISGDSVSSNSAAWNWIRQSPSRGLEWLGRIYYRSKWYNDYAVSVKSRITINPDTSKNQFSLQLNSVTPEDTAVYYCARERSYRDYFDYWGQGTLVTVSS VL: DIQMTQSPSSLSASVGDRVTITCRASQGIFTYLNWYQQKPGKAPKLLISAASTLQSGVPSRFSGSGSGTDFTLTISSLQPEDFATYYCQQYYSTSLTFGQGTKVEIKR")
18.7
>>> numeric_readout("NOV0719-SMCC-DM1 (antibody, human IgG1, kappa, V domains shown, SMCC-DM1 on primary amines, sites not stated) VH: QVQLLESGGGLVQPGGSLRLSCAASGFTFSSHWVHWVRQAPGKGLEWVSVISYMGSSTYYADSVKGRFTISRDNSKNTLYLQMNSLRAEDTAVYYCARGSYDMAFDVWGQGTLVTVSS VL: DIQMTQSPSSLSASVGDRVTITCRASQSIVSYLNWYQQKPGKAPKLLIYDASSLQSGVPSRFSGSGSGTDFTLTISSLQPEDFATYYCQQSGSHSITFGQGTKVEIKR")
-9.87

Cited source for all entries: patent US20170224836A1
